Assay: Pharmacokinetics after IV and oral dose, dogs
Type: in vivo, Beagle dogs
Conditions: Beagle, plasma; dog, male, single oral dose 6 mg base/kg; read-out: % F
Endpoint: bioavailability (%)
Answers are plain numbers, in %.

Task: Look up and state reported bioavailability for COc1ccc(-c2c(-c3ccc(C#N)c(F)c3)nc(N3CCC(N)CC3)n(C)c2=O)cc1F
Output: 100

###

Assay: in vivo
Conditions: female, Beagle, dog, po, AUC0-96
Endpoint: AUC(0-t) (ng·h/mL)
Numbers only, in ng·h/mL.

Task: Look up and state reported AUC(0-t) for COc1ccc(-c2c(-c3ccc(C#N)c(F)c3)nc(N3CCC(N)CC3)n(C)c2=O)cc1F [Compound A]
Output: 141

###

Test: Pharmacokinetics after IV and oral dose, dogs
Type: in vivo, Beagle dogs
Conditions: Beagle, plasma; dog, male, single oral dose 1 mg base/kg; read-out: t1/2, z (converted)
Endpoint: half-life (h)
One number for each entry, in h.

Task: Look up and state reported half-life for COc1ccc(-c2c(-c3ccc(C#N)c(F)c3)nc(N3CCC(N)CC3)n(C)c2=O)cc1F [Compound A]
Output: 15

###

Experiment: Pharmacokinetics after IV and oral dose, dogs
Assay type: in vivo, Beagle dogs
Conditions: Beagle, plasma; dog, male, single oral dose 1 mg base/kg; read-out: % F
Endpoint: bioavailability (%)
Give bare numbers, in %.

Task: Look up and state reported bioavailability for COc1ccc(-c2c(-c3ccc(C#N)c(F)c3)nc(N3CCC(N)CC3)n(C)c2=O)cc1F
Output: 84

###

Test: Pharmacokinetics after IV and oral dose, dogs
Format: in vivo, Beagle dogs
Settings: Beagle, plasma; dog, male, single oral dose 6 mg base/kg
Endpoint: Tmax (h)
Numbers only, in h.

Task: Look up and state reported Tmax for COc1ccc(-c2c(-c3ccc(C#N)c(F)c3)nc(N3CCC(N)CC3)n(C)c2=O)cc1F
Output: 1

###

Experiment: Pharmacokinetics after IV and oral dose, rats
Type: in vivo, Sprague Dawley rats
Conditions: Sprague Dawley, plasma; rat, female, single oral dose 15 mg base/kg; read-out: t1/2, z (converted)
Endpoint: half-life (h)
One number for each entry, in h.

Task: Look up and state reported half-life for COc1ccc(-c2c(-c3ccc(C#N)c(F)c3)nc(N3CCC(N)CC3)n(C)c2=O)cc1F
Output: 2.9

###

Experiment: in vivo
Settings: male, Beagle, dog, po, 0.25 mg/kg, Cmax
Endpoint: Cmax (ng/mL)
One number for each entry, in ng/mL.

Task: Look up and state reported Cmax for COc1ccc(-c2c(-c3ccc(C#N)c(F)c3)nc(N3CCC(N)CC3)n(C)c2=O)cc1F
Output: 11.9

###

Experiment: in vivo
Conditions: female, Beagle, dog, po, 0.25 mg/kg, AUC0-96
Endpoint: AUC(0-t)

Task: Look up and state reported AUC(0-t) for COc1ccc(-c2c(-c3ccc(C#N)c(F)c3)nc(N3CCC(N)CC3)n(C)c2=O)cc1F
Output: 343 ng·h/mL

###

Experiment: Hemodynamic and ECG parameters in anesthetized guinea pigs
Format: in vivo, Dunkin Hartley guinea pigs
Conditions: male, Dunkin Hartley, guinea pig, plasma; 5 mg base/kg IV, 10 minutes; read-out: mean plasma concentration at end of infusion
Endpoint: concentration at 10 min (ng/mL)
Answers are plain numbers, in ng/mL.

Task: Look up and state reported concentration at 10 min for COc1ccc(-c2c(-c3ccc(C#N)c(F)c3)nc(N3CCC(N)CC3)n(C)c2=O)cc1F
Output: 1170

###

Experiment: Pharmacokinetics after IV and oral dose, rats
Type: in vivo, Sprague Dawley rats
Conditions: Sprague Dawley, plasma; rat, female, single IV dose 5 mg
Endpoint: clearance

Task: Look up and state reported clearance for COc1ccc(-c2c(-c3ccc(C#N)c(F)c3)nc(N3CCC(N)CC3)n(C)c2=O)cc1F [Compound A]
Output: 115 mL/min/kg

###

Assay: Pharmacokinetics after IV and oral dose, dogs
Assay type: in vivo, Beagle dogs
Settings: Beagle, plasma; dog, male, single oral dose 3 mg base/kg; read-out: % F
Endpoint: bioavailability (%)
Numbers only, in %.

Task: Look up and state reported bioavailability for COc1ccc(-c2c(-c3ccc(C#N)c(F)c3)nc(N3CCC(N)CC3)n(C)c2=O)cc1F
Output: 100

###

Test: Pharmacokinetics after IV and oral dose, mice
Format: in vivo, CD-1 mice
Conditions: CD-1, plasma; mouse, female, single oral dose 10 mg base/kg; read-out: tmax
Endpoint: Tmax (min)
Answers are plain numbers, in min.

Task: Look up and state reported Tmax for COc1ccc(-c2c(-c3ccc(C#N)c(F)c3)nc(N3CCC(N)CC3)n(C)c2=O)cc1F
Output: 30

###

Assay: Pharmacokinetics after IV and oral dose, dogs
Assay type: in vivo, Beagle dogs
Conditions: Beagle, plasma; dog, male, single oral dose 3 mg base/kg
Endpoint: AUC(0-t) (ng·h/mL)
One number for each entry, in ng·h/mL.

Task: Look up and state reported AUC(0-t) for COc1ccc(-c2c(-c3ccc(C#N)c(F)c3)nc(N3CCC(N)CC3)n(C)c2=O)cc1F
Output: 3790

###

Assay: Pharmacokinetics after IV and oral dose, dogs
Assay type: in vivo, Beagle dogs
Conditions: Beagle, dog, plasma, po; dogs and monkeys; read-out: oral bioavailability
Endpoint: bioavailability

Task: Look up and state reported bioavailability for COc1ccc(-c2c(-c3ccc(C#N)c(F)c3)nc(N3CCC(N)CC3)n(C)c2=O)cc1F
Output: 82 to 100%

###

Assay: 4-week oral gavage pivotal toxicity study with 4-week recovery in dogs (incl. ECG, TK)
Assay type: in vivo, Beagle dogs
Settings: female, Beagle, dog, in vivo, po, AUC0-168
Endpoint: AUC(0-t)

Task: Look up and state reported AUC(0-t) for COc1ccc(-c2c(-c3ccc(C#N)c(F)c3)nc(N3CCC(N)CC3)n(C)c2=O)cc1F
Output: 435 ng·h/mL

###

Assay: Pharmacokinetics after IV and oral dose, mice
Assay type: in vivo, CD-1 mice
Conditions: CD-1, plasma; mouse, female, single IV dose 5 mg
Endpoint: clearance (mL/min/kg)
Give bare numbers, in mL/min/kg.

Task: Look up and state reported clearance for COc1ccc(-c2c(-c3ccc(C#N)c(F)c3)nc(N3CCC(N)CC3)n(C)c2=O)cc1F
Output: 32

###

Assay: LXFS 615 SCLC PDX model
Format: in vivo, mice
Conditions: female, NMRI-Foxnlnu, mouse, oral; 5 mg base/kg, plasma after final dose; read-out: AUC0-24
Endpoint: AUC(0-t)
Field note: include the unit after the figure.

Task: Look up and state reported AUC(0-t) for COc1ccc(-c2c(-c3ccc(C#N)c(F)c3)nc(N3CCC(N)CC3)n(C)c2=O)cc1F [Compound A]
Output: 1620 ng·h/mL

###

Molecular target: hERG potassium channel (Homo sapiens (Human))
Test: in vitro
Conditions: HEK293 cells stably expressing hERG channels
Endpoint: inhibition at 10 µM (%)
Answers are plain numbers, in %.

Task: Provide inhibition at 10 µM, tested on hERG potassium channel (Homo sapiens (Human)), for COc1ccc(-c2c(-c3ccc(C#N)c(F)c3)nc(N3CCC(N)CC3)n(C)c2=O)cc1F .
Output: 77.3

###

Molecular target: hERG potassium channel (Homo sapiens (Human), UniProt Q12809)
Sequence (Q12809 whole entry): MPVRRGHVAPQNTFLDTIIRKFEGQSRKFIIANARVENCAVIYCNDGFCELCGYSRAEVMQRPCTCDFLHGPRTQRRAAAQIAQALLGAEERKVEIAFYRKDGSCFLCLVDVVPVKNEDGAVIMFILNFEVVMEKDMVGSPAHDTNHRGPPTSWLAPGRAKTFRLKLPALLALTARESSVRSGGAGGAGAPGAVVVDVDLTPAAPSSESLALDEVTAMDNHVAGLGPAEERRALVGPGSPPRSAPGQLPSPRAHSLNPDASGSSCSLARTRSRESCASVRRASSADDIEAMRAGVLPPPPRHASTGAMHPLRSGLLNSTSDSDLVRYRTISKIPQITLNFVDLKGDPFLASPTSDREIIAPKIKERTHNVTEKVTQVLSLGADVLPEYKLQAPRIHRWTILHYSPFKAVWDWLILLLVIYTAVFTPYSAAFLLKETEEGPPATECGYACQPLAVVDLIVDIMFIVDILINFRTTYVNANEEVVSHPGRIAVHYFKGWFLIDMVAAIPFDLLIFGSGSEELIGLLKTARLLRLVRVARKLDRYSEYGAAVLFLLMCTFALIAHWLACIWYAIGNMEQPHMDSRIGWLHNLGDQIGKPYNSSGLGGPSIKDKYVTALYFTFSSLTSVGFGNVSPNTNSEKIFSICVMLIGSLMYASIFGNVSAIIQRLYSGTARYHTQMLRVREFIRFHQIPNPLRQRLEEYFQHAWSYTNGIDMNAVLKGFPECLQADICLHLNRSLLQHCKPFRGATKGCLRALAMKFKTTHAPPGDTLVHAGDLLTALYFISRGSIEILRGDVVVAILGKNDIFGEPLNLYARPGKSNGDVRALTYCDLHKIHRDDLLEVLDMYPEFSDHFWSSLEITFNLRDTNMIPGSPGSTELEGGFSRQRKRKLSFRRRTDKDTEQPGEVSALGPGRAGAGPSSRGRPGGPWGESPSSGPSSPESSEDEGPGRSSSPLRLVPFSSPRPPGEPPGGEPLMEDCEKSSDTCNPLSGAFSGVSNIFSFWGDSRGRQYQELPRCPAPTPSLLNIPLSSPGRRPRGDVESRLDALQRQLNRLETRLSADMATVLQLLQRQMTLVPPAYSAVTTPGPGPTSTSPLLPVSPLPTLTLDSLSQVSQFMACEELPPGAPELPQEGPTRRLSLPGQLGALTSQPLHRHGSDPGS
Assay: in vitro
Conditions: HEK293 cells stably expressing hERG channels
Endpoint: inhibition at 3 µM (%)
One number for each entry, in %.

Task: Look up and state reported inhibition at 3 µM for COc1ccc(-c2c(-c3ccc(C#N)c(F)c3)nc(N3CCC(N)CC3)n(C)c2=O)cc1F [Compound A]
Output: 47

###

Assay: Pharmacokinetics after IV and oral dose, monkeys
Assay type: in vivo
Settings: cynomolgus monkey, plasma, male, single oral dose 5 mg base/kg
Endpoint: Tmax (h)
One number for each entry, in h.

Task: Look up and state reported Tmax for COc1ccc(-c2c(-c3ccc(C#N)c(F)c3)nc(N3CCC(N)CC3)n(C)c2=O)cc1F
Output: 6

###

Assay: Pharmacokinetics after IV and oral dose, rats
Assay type: in vivo, Sprague Dawley rats
Settings: Sprague Dawley, plasma; rat, female, single oral dose 15 mg base/kg
Endpoint: AUC(0-t) (µg·h/mL)
Answers are plain numbers, in µg·h/mL.

Task: Look up and state reported AUC(0-t) for COc1ccc(-c2c(-c3ccc(C#N)c(F)c3)nc(N3CCC(N)CC3)n(C)c2=O)cc1F [Compound A]
Output: 0.57

###

Assay: Pharmacokinetics after IV and oral dose, monkeys
Type: in vivo
Settings: cynomolgus monkey, plasma, male, single IV dose 1 mg
Endpoint: clearance
Field note: include the unit after the figure.

Task: Look up and state reported clearance for COc1ccc(-c2c(-c3ccc(C#N)c(F)c3)nc(N3CCC(N)CC3)n(C)c2=O)cc1F [Compound A]
Output: 18 mL/min/kg

###

Test: Hemodynamic and ECG parameters in anesthetized guinea pigs
Format: in vivo, Dunkin Hartley guinea pigs
Conditions: male, Dunkin Hartley, guinea pig, plasma; 20 mg base/kg IV, 10 minutes; read-out: mean plasma concentration at end of infusion
Endpoint: concentration at 10 min (ng/mL)
Give bare numbers, in ng/mL.

Task: Look up and state reported concentration at 10 min for COc1ccc(-c2c(-c3ccc(C#N)c(F)c3)nc(N3CCC(N)CC3)n(C)c2=O)cc1F [Compound A]
Output: 6710
